Just for reference, patent US8329726B2 is where these values come from.

biological target: VEGF receptor KDR (Homo sapiens); construct: made in house; host or cells: Sf9 cells (Spodoptera frugiperda), baculovirus; assay: In vitro receptor tyrosine kinase assay (DELFIA), VEGF receptor KDR; type: biochemical; details: read-out: VEGFR IC50
Sequence (P35968 806-1356): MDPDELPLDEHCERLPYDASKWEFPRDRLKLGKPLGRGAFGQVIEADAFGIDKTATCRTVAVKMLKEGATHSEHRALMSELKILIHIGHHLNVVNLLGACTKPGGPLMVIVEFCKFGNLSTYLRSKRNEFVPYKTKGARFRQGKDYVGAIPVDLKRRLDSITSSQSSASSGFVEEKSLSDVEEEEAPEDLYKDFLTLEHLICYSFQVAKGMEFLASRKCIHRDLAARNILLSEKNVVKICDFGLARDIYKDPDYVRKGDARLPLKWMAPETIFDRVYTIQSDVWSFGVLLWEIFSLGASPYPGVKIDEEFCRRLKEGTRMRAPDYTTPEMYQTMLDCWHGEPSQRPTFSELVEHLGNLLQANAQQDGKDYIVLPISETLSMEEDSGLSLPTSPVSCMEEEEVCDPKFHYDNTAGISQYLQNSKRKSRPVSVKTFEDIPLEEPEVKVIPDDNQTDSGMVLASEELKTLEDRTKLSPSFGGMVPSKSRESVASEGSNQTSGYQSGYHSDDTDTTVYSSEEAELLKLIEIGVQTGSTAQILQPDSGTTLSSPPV
pIC50: −log10 of the molar value.
Would you kindly list pIC50 for each of these compounds?

Q) Give VEGF receptor KDR (Homo sapiens) pIC50 for the following compound: "COc1ccccc1NC(=O)CC(=O)Nc1ccc(Oc2ccnc3cc(-c4cn(CCN(C)C)cn4)sc23)c(F)c1"
A) > 7.30

Q) Print VEGF receptor KDR (Homo sapiens) pIC50 for CN1CCN(Cc2ccc(-c3cc4nccc(Oc5ccc(NC(=O)C6CCN(c7ccccc7)C6=O)cc5F)c4s3)nc2)CC1 (stereo not drawn) .
A) > 7.30

Q) For VEGF receptor KDR (Homo sapiens), give the measured pIC50 of the entry Cn1cnc(-c2cc3nccc(Oc4ccc(NC(=O)C5CCN(c6cccnc6)C5=O)cc4F)c3s2)c1 (stereo not drawn)
A) 6.30 to 6.60

Q) Find pIC50 for "O=C(Nc1ccc(Oc2ccnc3cc(-c4cn(CCCN5CCCC5)cn4)sc23)c(F)c1)N1CCN(c2ccccc2F)C1=O" on VEGF receptor KDR (Homo sapiens) and write it down.
A) > 7.30

Q) Fill in pIC50 for "O=C(Nc1ccc(Oc2ccnc3cc(-c4cn(CCCN5CCCC5)cn4)sc23)c(F)c1)C1(C(=O)Nc2ccccc2F)CC1" tested with VEGF receptor KDR (Homo sapiens).
A) > 7.30

Q) Fill: pIC50 (VEGF receptor KDR (Homo sapiens)) for this compound "Cn1ccnc1-c1cc2nccc(Oc3ccc(NC(=O)CC(=O)NC4CCNCC4)cc3F)c2s1"
A) < 6.30

Q) For VEGF receptor KDR (Homo sapiens), give pIC50 of the listed compound: "CN1CC=C(c2cc3nccc(Oc4ccc(NC(=O)N5CCN(c6ccccc6)C5=O)cc4F)c3s2)CC1"
A) 6.60 to 7.30

Q) GET pIC50 | system: VEGF receptor KDR (Homo sapiens) | item: O=C(Nc1ccc(Oc2ccnc3cc(-c4cn(CCCN5CCCC5)cn4)sc23)c(F)c1)C1CCN(c2ccccc2)C1=O (stereo not drawn)
A) > 7.30

Q) Give measured pIC50 for "CN(C(=O)CC(=O)Nc1ccc(Oc2ccnc3cc(C(=O)N(C)N(C)C)sc23)c(F)c1)c1ccccc1" (VEGF receptor KDR (Homo sapiens)).
A) < 6.30

Q) Using VEGF receptor KDR (Homo sapiens) as the test system, report measured pIC50 of "CN(C)CCCN(C)Cc1ccc(-c2cc3nccc(Oc4ccc(NC(=O)CC(=O)N(C)c5ccccc5)cc4F)c3s2)cc1" .
A) > 7.30

Q) Under VEGF receptor KDR (Homo sapiens): report pIC50 of "CN1CCN(CCN(C)Cc2ccc(-c3cc4nccc(Oc5ccc(NC(=O)C6(C(=O)Nc7ccc(F)cc7)CC6)cc5F)c4s3)cc2)CC1" .
A) > 7.30

Q) State measured pIC50 of the compound CCn1cnc(-c2cc3nccc(Oc4ccc(NC(=O)CC(Nc5ccc(F)cc5)C(F)(F)F)cc4F)c3s2)c1 (stereo not drawn) with VEGF receptor KDR (Homo sapiens).
A) 6.60 to 7.30

Q) Give pIC50 only, for "CCn1cnc(-c2cc3nccc(Oc4ccc(NC(=O)CC(=O)Nc5ccccc5)cc4F)c3s2)c1C" , using VEGF receptor KDR (Homo sapiens) data.
A) > 7.30

Q) Quote pIC50 with test system VEGF receptor KDR (Homo sapiens) for "CCn1cnc(-c2cc3nccc(Oc4ccc(NC(=O)C5(C(=O)N(C)c6ccc(F)cc6)CC5)cc4F)c3s2)c1"
A) > 7.30

Q) Jot down pIC50 (VEGF receptor KDR (Homo sapiens)) of CC(C)n1cnc(-c2cc3nccc(Oc4ccc(NC(=O)C5CCN(c6ccccc6)C5=O)cc4F)c3s2)c1 (stereo not drawn) .
A) > 7.30

Q) Enter pIC50 (test system VEGF receptor KDR (Homo sapiens)) for "COc1cccc(Nc2cc3nccc(Oc4ccc(NC(=O)CC(=O)Nc5ccccc5)cc4F)c3s2)c1"
A) < 6.30

Q) Specify the recorded pIC50 for "CCn1cnc(-c2cc3nccc(Oc4ccc(NC(=O)CC(=O)Nc5ccc(OC)cc5)cc4F)c3s2)c1" , system: VEGF receptor KDR (Homo sapiens).
A) > 7.30

Q) Look up and report measured pIC50 (VEGF receptor KDR (Homo sapiens)) for the following compound: "CCn1cnc(-c2cc3nccc(Oc4ccc(NC(=O)CC(=O)Nc5cccc(OC)c5)cc4F)c3s2)c1"
A) > 7.30

Q) Name the value of pIC50 reported for "Cn1ccnc1-c1cc2nccc(Sc3ccc(NC(=O)N4CCN(c5ccccc5)C4=O)cc3)c2s1" when tested on VEGF receptor KDR (Homo sapiens).
A) 6.60 to 7.30

Q) Lab note: record pIC50 of "Cn1cnc(-c2cc3nccc(Oc4ccc(NC(=O)N5CCN(c6ccccc6)C5=O)cc4F)c3s2)c1" tested on VEGF receptor KDR (Homo sapiens).
A) > 7.30

Q) Provide the reported pIC50 (system: VEGF receptor KDR (Homo sapiens)) for "CN1CCN(CCN(C)Cc2ccc(-c3cc4nccc(Oc5ccc(NC(=O)CC(=O)Nc6cccc(F)c6)cc5F)c4s3)cc2)CC1"
A) > 7.30

Q) # lookup: VEGF receptor KDR (Homo sapiens) pIC50, key = "CN(C(=O)CC(=O)Nc1ccc(Oc2ccnc3cc(-c4cn(C)cn4)sc23)c(F)c1)c1ccccc1"
A) > 7.30

Q) Provide the reported pIC50 (system: VEGF receptor KDR (Homo sapiens)) for "CN1CC=C(c2cc3nccc(Oc4ccc(NC(=O)CC(=O)N(C)c5ccccc5)cc4F)c3s2)CC1"
A) 6.60 to 7.30

Q) Fetch value of pIC50 on VEGF receptor KDR (Homo sapiens) for "Cn1cnc(-c2cc3nccc(Oc4ccc(NC(=O)CC(=O)Nc5ccccc5F)cc4F)c3s2)c1" .
A) > 7.30

Q) # return pIC50 of "CCn1cnc(-c2cc3nccc(Oc4ccc(NC(=O)CC(=O)Nc5ccccc5C(F)(F)F)cc4F)c3s2)c1" (system: VEGF receptor KDR (Homo sapiens))
A) > 7.30

Q) GET pIC50 | system: VEGF receptor KDR (Homo sapiens) | item: CCn1cnc(-c2cc3nccc(Oc4ccc(NC(=O)CC(=O)Nc5ccccc5)cc4F)c3s2)c1 [drawing 291]
A) 6.60 to 7.30

Q) Specify pIC50 for Cn1ccnc1-c1cc2nccc(Oc3ccc(NC(=O)CC(=O)Nc4cccnc4)cc3F)c2s1 [drawing 282] , system VEGF receptor KDR (Homo sapiens).
A) > 7.30

----------
Consider the following compounds; for each one, report its IC50.
molecular target: recombinant human c-Met/HGF receptor (Homo sapiens); construct: His tag (pBlueBacHis2A vector); made in house; host or cells: Hi-5 cells (Trichoplusia ni), baculovirus; assay: In vitro receptor tyrosine kinase assay (DELFIA), c-Met/HGF receptor; format: biochemical; conditions: read-out: CMET IC50
Sequence (P08581 1078-1337): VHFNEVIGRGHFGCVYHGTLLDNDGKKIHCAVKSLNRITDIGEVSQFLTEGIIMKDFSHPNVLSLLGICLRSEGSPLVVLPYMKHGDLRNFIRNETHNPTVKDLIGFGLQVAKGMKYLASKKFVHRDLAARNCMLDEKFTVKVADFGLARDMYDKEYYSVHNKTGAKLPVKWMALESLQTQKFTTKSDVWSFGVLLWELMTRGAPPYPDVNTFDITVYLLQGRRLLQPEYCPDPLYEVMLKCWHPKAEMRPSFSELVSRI

Q) Note IC50 for the compound shown: CN1CCN(Cc2ccc(-c3cc4nccc(Oc5ccc(NC(=O)C6CCN(c7ccccc7)C6=O)cc5F)c4s3)cc2)CC1 (centres unmarked)
A) 0.05 to 0.25 µM

Q) Return reported IC50. Input compound: "COc1ccccc1NC(=O)CC(=O)Nc1ccc(Oc2ccnc3cc(-c4cn(C)cn4)sc23)c(F)c1"
A) 0.05 to 0.25 µM

Q) Check the records and state IC50 for "CN1CC=C(c2cc3nccc(Oc4ccc(NC(=O)C5(C(=O)Nc6ccccc6)CC5)cc4F)c3s2)CC1"
A) < 0.05 µM

Q) Hello, please tell me recorded IC50 for this one: Cn1cncc1-c1cc2nccc(Oc3ccc(NC(=O)CC(=O)Nc4ccccc4)cc3F)c2s1 [drawing 288]
A) < 0.05 µM

Q) Give the value of IC50 reported for the following: COc1ccccc1NC(=O)CC(Nc1ccc(Oc2ccnc3cc(-c4cn(C)cn4)sc23)c(F)c1)C(F)(F)F (centres unmarked)
A) > 0.5 µM

Q) Given "CN(C)Cc1ccc(-c2cc3nccc(Oc4ccc(NC(=O)N5CCN(c6ccc(F)cc6)C5=O)cc4F)c3s2)nc1" , respond with its IC50.
A) < 0.05 µM

Q) Give me measured IC50, please, for this compound: "CCn1cnc(-c2cc3nccc(Oc4ccc(NC(=O)CC(=O)N5CCc6ccccc65)cc4F)c3s2)c1"
A) < 0.05 µM

Q) // Input: "O=C(Nc1ccc(Oc2ccnc3cc(-c4cn(CCCN5CCCC5)cn4)sc23)c(F)c1)N1CCN(c2ccc(F)cc2)C1=O" . Output its IC50 only.
A) < 0.05 µM

Q) Name the recorded IC50 of the compound listed here: "Cn1ccnc1-c1cc2nccc(Sc3ccc(NC(=O)N4CCN(c5ccccc5)C4=O)cc3)c2s1"
A) < 0.05 µM

Q) Please give measured IC50 of the following entry: Cn1cnc(-c2cc3nccc(Oc4ccc(NC(=O)CC(=O)Nc5ccccc5)cc4F)c3s2)c1 [drawing 287]
A) < 0.05 µM

Q) Please give the documented IC50 of "CN(c1ccc(NC(=O)C2(C(=O)Nc3ccccc3)CC2)cc1F)c1ccnc2ccsc12"
A) 0.25 to 0.5 µM
